Measured values drawn from PubChem BioAssay (NCI) for this set.

Assay: NCI Yeast Anticancer Drug Screen. Data for the bub3 strain (AID 167)
Details: S. cerevisiae bub3 mutant strain, at 11.0 µM, active compounds read high
Compounds without any hit were thinned out: in the full panel of roughly 79,000, 15% have a hit.
endpoint name: growth inhibition (%)

CC(C)(CN1CCCCC1)C(=O)/C=C/c1c(Cl)cccc1Cl; 91
COC1/C=C\C=C(/C)C(=O)NC2=CC(=O)C(=O)C(=C2O)CC(C)CC(OC)C(O)C(C)/C=C(\C)C1OC(N)=O (centres undefined); 93
CCCCCc1c(CCCC)c(=O)[nH]c2cc(CNCC(OC)OC)ccc12; 31
CC1=CC(C)(C)SC(SSSC2=NC(C)=CC(C)(C)S2)=N1; 1

---

Assay: NCI Yeast Anticancer Drug Screen. Data for the mlh1 strain (AID 171);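 note: 0% = growth of vehicle-treated control cultures of the same strain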
Conditions: S. cerevisiae mlh1 strain growth inhibition; at 1.2 µM
The panel holds about 79,000 compounds, 15% with a hit somewhere; the sample as a whole holds those more often. Active and inactive are the calls of the source. No stated cut-off is given here; in the data, active means growth inhibition above about 70%; inactive means the rest.
Outcome codes: label 1 for active, label 0 for inactive

CCCCN(CCC#N)c1ccc(/C=C/c2ccnc3ccccc23)cc1; label 0
CCN1CCC(O)(c2ccc(Oc3ccc(Cl)cc3)cc2)C(C(=O)c2ccc(Oc3ccc(Cl)cc3)cc2)C1 (stereo not drawn); label 0
CC(C)OP(=O)(OC(C)C)C(=NCCO)NNc1ccc([N+](=O)[O-])cc1; label 0
CS(=O)(=O)O.[Ag]; label 1
O=C1SS(=O)c2ccccc21 (stereo not drawn); label 0
CCC(/C=C/c1ccccc1)=N\Nc1ccc(Cl)c(Cl)c1; label 0
C/C1=C/C2OC(=O)C3(C)C2C(CC2(C)OC1=CC2=O)OC3(O)C(C)C (stereo not drawn); label 0
C=C(C(=O)OC)N1C(=O)CC(C)C1=O (stereo not drawn); label 0
O=C1Nc2ccc(Br)cc2C1=Nc1ccc(Cl)cc1; label 0
CC(=O)O[C@H]1CC[C@@]2(C)C(=CC[C@@H]3C2CC[C@]2(C)C(=O)NC(=O)CC32)C1 (stereo partly drawn); label 0
CSc1nc(-c2ccccc2)nc(=[N+]2CCOCC2)s1; label 0
Nc1ccc(N=Nc2ccc(-c3ccc(O)cc3)cc2)c2ccc(S(=O)(=O)O)cc12; label 0
O=C(c1cc(=O)c2ccc(O)cc2o1)c1ccc(Cl)cc1Cl; label 0

---

Experiment: NCI Yeast Anticancer Drug Screen. Data for the wt1 strain (AID 149);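 note: 0% = growth of vehicle-treated wt1 cultures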
Conditions: S. cerevisiae wt1 strain (SPY 50644) growth inhibition; at 33.0 µM; active compounds read high
This is part of a sample that, as a whole, favours compounds with a hit. Of some 79,000 tested, about 15% had one in any assay.
The reader will find reported growth inhibition values listed item by item below.
endpoint name: growth inhibition (%)

CCCCCCCCCCCCOCCOCCOCC(N)=O; 95
O=S(=O)(NC1CCCC(c2ccccc2)C1)c1ccccc1 (stereo unspecified); -3
O=C(Cc1ccccc1)NNc1nc(NNC(=O)c2ccncc2)nc(Nc2ccc([N+](=O)[O-])cc2)n1; 19
O=CC1(F)CC1(c1ccccc1)c1ccccc1 (stereo unspecified); -1
COc1ccc2c(c1)CCCC(Br)C2=O (stereo unspecified); 51
Cc1cc(C)c(S(=O)(=O)c2ccc(Cl)cc2)c(C)c1; -14

---

Assay: NCI Yeast Anticancer Drug Screen. Data for the cln2 rad14 strain (AID 165);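 note: 0% = growth equal to vehicle treated cultures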
Conditions: S. cerevisiae cln2 rad14 strain, at 5.0 µM (retest, dose inferred, filed as 0.5), active compounds read high
This is part of a sample that, as a whole, favours compounds with a hit. Of some 79,000 tested, about 15% had one in any assay.
The reader will find reported growth inhibition values listed item by item below.
endpoint name: growth inhibition (%)

COC(=O)c1cnc(Cl)c([N+](=O)[O-])c1; 2
O=Cc1ccccc1C=O; 5
COC(=O)C(Cc1c[nH]c2ccccc12)N1CN(C)c2ccccc2C1=O (stereo unspecified); -4
CC(C)C(=O)CC(Sc1ccc(N)cc1)c1ccccc1 (stereo unspecified); -3
CSC(=S)N/N=C/c1ccccc1; 16
COc1cccc(/C=C2\S/C(=N/Nc3nc(-c4ccc([N+](=O)[O-])cc4)cs3)NC2=O)c1O; 33
CC1(C)C(O)OC(O)C1(C)C (stereo unspecified); 32
Cc1ccc(S(=O)(=O)NC(=O)C2C(=O)CC3(CCCCC3)CC2=O)cc1; 5
O=[N+]([O-])c1cc[n+]([O-])c(Cl)c1; 10
COc1ccc(C(=O)/C=C\c2ccc(Cl)c(Cl)c2)cc1; 18
CC1=CC(=C(c2ccc(N)c(C)c2)c2ccc(N)c(C)c2)C=CC1=N; 9
COc1ccccc1NC(=O)c1ccc(Cl)cc1; 23
C/C(=N\OCC(O)CNCCSCc1ccccc1)c1ccccc1Cl (stereo unspecified); 14
Nc1ccc2cc(Br)ccc2c1Br; 3
CC(C)(Br)C(=O)/C=C/c1ccccc1; 3
CC(C)(C)c1ccc2c(c1)C(=O)c1ccccc1C2=O; -7
